System: SNB-19 CNS
Test: NCI-60 one-dose screen, 48 h
Details: 10 µM unless noted
Compounds without any hit were thinned out: in the full panel of roughly 83,000, 20% have a hit. The source made the active and inactive calls. The calls were made as follows: active = growth percent below 10; inactive = the rest.
Assign a class; possible classes are TRUE = active, FALSE = inactive

Example entries and their recorded answers appear below.
>  <Compound>
Cc1cc2nc3cc(C)c(N)cc3[n+](-c3ccccc3)c2cc1N

>  <Assigned Class>
FALSE

$$$$
>  <Compound>
CC(C)c1cc(C(C)C)c(S(=O)(=O)Oc2ccc(NC(=O)c3ccc(Cl)cc3)cc2)c(C(C)C)c1

>  <Assigned Class>
FALSE

$$$$
>  <Compound>
C=C1C(=O)O[C@H]2[C@H]1CC/C(COC(=O)C(C)c1ccc(CC(C)C)cc1)=C\CC[C@@]1(C)O[C@@H]21 (stereo not given in full)

>  <Assigned Class>
FALSE

$$$$
>  <Compound>
CCCCn1c(-c2ccc(-c3nc(-c4ccc(Cl)cc4)no3)cc2)nc(-c2ccccc2)c1-c1ccccc1

>  <Assigned Class>
FALSE

$$$$
>  <Compound>
S=c1nc(-c2ccccc2)oc(=NC2CCCCC2)n1C1CCCCC1

>  <Assigned Class>
FALSE

$$$$

In this assay, the call recorded for Cc1ccc(C(CC(=O)O)c2c(C)[nH][nH]c2=O)cc1 (stereo not given) was what?
FALSE

Do the same for O=C(/C=C/c1sc(Cl)nc1Cl)c1ccc(F)cc1 please
FALSE

Do the same for CNc1ccc(Nc2cccc(C)c2)c2c1C(=O)c1ccccc1C2=O please
FALSE

Do the same for COc1ccc2sc3c(NCCO)nc4ccccc4c3c(=O)c2c1 please
FALSE

Do the same for c1ccc2c(c1)Nc1ccncc1S2 please
FALSE
